Molecular target: 3',5'-cyclic-AMP phosphodiesterase 4B (Homo sapiens, UniProt Q07343)
Sequence (Q07343 whole entry): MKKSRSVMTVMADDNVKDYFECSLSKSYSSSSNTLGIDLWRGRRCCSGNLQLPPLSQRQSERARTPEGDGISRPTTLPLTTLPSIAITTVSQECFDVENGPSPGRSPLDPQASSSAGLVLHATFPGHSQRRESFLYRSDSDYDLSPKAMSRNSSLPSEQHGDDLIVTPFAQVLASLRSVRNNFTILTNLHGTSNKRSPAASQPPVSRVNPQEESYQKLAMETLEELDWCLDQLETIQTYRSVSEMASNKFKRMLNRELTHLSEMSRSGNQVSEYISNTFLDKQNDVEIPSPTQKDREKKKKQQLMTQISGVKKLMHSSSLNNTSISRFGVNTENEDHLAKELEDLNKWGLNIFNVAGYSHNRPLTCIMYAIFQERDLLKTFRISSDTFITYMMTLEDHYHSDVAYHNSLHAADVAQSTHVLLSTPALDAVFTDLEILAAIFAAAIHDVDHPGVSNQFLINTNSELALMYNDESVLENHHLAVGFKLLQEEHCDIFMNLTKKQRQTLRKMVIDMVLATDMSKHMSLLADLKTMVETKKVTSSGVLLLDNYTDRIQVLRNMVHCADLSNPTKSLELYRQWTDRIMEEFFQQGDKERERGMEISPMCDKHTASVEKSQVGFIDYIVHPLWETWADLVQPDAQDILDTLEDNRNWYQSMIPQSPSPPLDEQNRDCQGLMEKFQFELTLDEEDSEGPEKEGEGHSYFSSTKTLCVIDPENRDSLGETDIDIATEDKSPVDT
For each of the compounds below, state its log10 of Ki.
Field: value | Transform: log10 | Quantity: Ki | Unit: nM

Previously resolved entries follow.
| COMPOUND | log10 of Ki |
| --- | --- |
| COc1ccc([C@H]2CCN3C(=O)OC[C@@H]23)cc1OC1CCCC1 | 2.45 |
| COc1ccc([C@H]2CCN3C(=O)NC[C@H]23)cc1OC1CCCC1 | 1.43 |
| COc1ccc(CC2CNC(=O)N2)cc1OC1CCCC1 (stereo not given) | 2.65 |
| COc1ccc([C@H]2CCN3C(=O)NC[C@@H]23)cc1OC1CCCC1 | 2.77 |

Read the next record carefully.
Quick one: log10 of Ki for `COc1ccc([C@H]2CCN3C(=O)CC[C@@H]23)cc1OC1CCCC1` ?
2.53
